Value source: patent US8101605B2

System: OPM2 cells
Experimental Details: Inhibition of OPM2 proliferation (BrdU ELISA)
Assay type: cell-based
Recorded Conditions: Homo sapiens, OPM-2, 72 hours, read-out: Scoring: % inhibition of OPM2 proliferation
Property Label: inhibition at 30 µM

Previously resolved entries follow.
Sample COC(=O)CNC(=O)c1cc(O)c2c(c1)S(=O)(=O)C[C@@H]1[C@@]3(C)CCCC(C)(C)[C@@H]3CC[C@@]21C [compound 92] — what was its inhibition at 30 µM?
≥ 75%

Sample CC1(C)CCC[C@]2(C)[C@H]3CS(=O)(=O)c4cc(C(=O)N5CCOCC5)cc(O)c4[C@]3(C)CC[C@@H]12 [compound 87] — what was its inhibition at 30 µM?
25 to 75%

Sample CNC(=O)c1cc(O)c2c(c1)S(=O)(=O)C[C@@H]1[C@@]3(C)CCCC(C)(C)[C@@H]3CC[C@@]21C [Compound No. 62] — what was its inhibition at 30 µM?
25 to 75%

Sample CC1(C)CCC[C@]2(C)[C@H]3CS(=O)(=O)c4cc(C(=O)N5CCNCC5)cc(O)c4[C@]3(C)CC[C@@H]12 [compound 102] — what was its inhibition at 30 µM?
≥ 75%

Sample CC1(C)CCC[C@]2(C)[C@H]3CS(=O)(=O)c4cc(OCC(=O)O)cc(OCC(=O)O)c4[C@]3(C)CC[C@@H]12 [compound 108] — what was its inhibition at 30 µM?
< 25%

Sample CC1(C)CCC[C@]2(C)[C@H]3CSc4cc(O)cc(C#N)c4[C@]3(C)CC[C@@H]12 [compound 78] — what was its inhibition at 30 µM?
≥ 75%

Sample COc1cc(OCC(=O)N2CCOCC2)cc2c1[C@]1(C)CC[C@H]3C(C)(C)CCC[C@]3(C)[C@H]1CS2(=O)=O [compound 110] — what was its inhibition at 30 µM?
< 25%

Sample COc1cc(O)cc2c1[C@]1(C)CC[C@H]3C(C)(C)CCC[C@]3(C)[C@H]1CS2(=O)=O [compound 57] — what was its inhibition at 30 µM?
≥ 75%

Others:
Sample CN1CCN(C(=O)c2cc(O)c3c(c2)S(=O)(=O)C[C@@H]2[C@@]4(C)CCCC(C)(C)[C@@H]4CC[C@@]32C)CC1 [compound 89] — what was its inhibition at 30 µM?
≥ 75%

Sample CNC(=O)c1cc(OC)c2c(c1)S(=O)(=O)C[C@@H]1[C@@]3(C)CCCC(C)(C)[C@@H]3CC[C@@]21C [compound 81] — what was its inhibition at 30 µM?
25 to 75%

Sample COc1cc(OC)c2c(c1N)S(=O)(=O)C[C@@H]1[C@@]3(C)CCCC(C)(C)[C@@H]3CC[C@@]21C [compound 112] — what was its inhibition at 30 µM?
≥ 75%
